Cited source for all entries: ChEMBL document CHEMBL4321818

Entries and their pIC50
molecular target: Fucose-binding lectin PA-IIL (Pseudomonas aeruginosa (strain ATCC 15692 / DSM 22644 / CIP 104116 / JCM14847 / LMG 12228 / 1C / PRS 101 / PAO1)); assay: Inhibition of N-(fluorescein-5-yl)-N'-(alpha-L-fucopyranosyl ethylen)thiocarbamide binding to Pseudomonas aeruginosa PAO1 LecB incubated for 22 to 24 hrs by fluorescence polarization assay
Sequence (Q9HYN5 whole entry): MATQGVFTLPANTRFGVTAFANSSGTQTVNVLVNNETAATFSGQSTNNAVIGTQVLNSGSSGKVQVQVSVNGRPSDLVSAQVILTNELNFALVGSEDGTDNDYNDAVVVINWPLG
pIC50: −log10 of the molar value.
READOUT_KIND: pIC50

{"QUERY_SMILES": "C[C@@H]1O[C@H](CNS(=O)(=O)c2ccc(C#CCCc3ccccc3)s2)[C@@H](O)[C@H](O)[C@@H]1O", "QUANTITATIVE_RESULT": 5.50}
{"QUERY_SMILES": "C[C@@H]1O[C@H](CNS(=O)(=O)c2ccc(Br)s2)[C@@H](O)[C@H](O)[C@@H]1O", "QUANTITATIVE_RESULT": 5.48}
{"QUERY_SMILES": "Cc1cccc(C#Cc2ccc(S(=O)(=O)NC[C@H]3O[C@@H](C)[C@@H](O)[C@@H](O)[C@@H]3O)s2)c1", "QUANTITATIVE_RESULT": 5.76}
{"QUERY_SMILES": "Cc1ccc(S(=O)(=O)NC[C@H]2O[C@@H](C)[C@@H](O)[C@@H](O)[C@@H]2O)s1", "QUANTITATIVE_RESULT": 5.45}

###

experiment: Half life in CD1 mouse plasma at 10 mg/kg, po or ip after 24 hrs; assay type: ADME, organism-based

{"QUERY_SMILES": "C[C@@H]1O[C@H](CNS(=O)(=O)c2cccs2)[C@@H](O)[C@H](O)[C@@H]1O", "UNIT_LABEL": "min", "half-life": 34}
{"QUERY_SMILES": "Cc1cc(C)c(S(=O)(=O)NC[C@H]2O[C@@H](C)[C@@H](O)[C@@H](O)[C@@H]2O)c(C)c1", "UNIT_LABEL": "min", "half-life": 17}

###

target: Fucose-binding lectin PA-IIL (Pseudomonas aeruginosa (strain ATCC 15692 / DSM 22644 / CIP 104116 / JCM14847 / LMG 12228 / 1C / PRS 101 / PAO1)); assay: Inhibition of N-(fluorescein-5-yl)-N'-(alpha-L-fucopyranosyl ethylen)thiocarbamide binding to Pseudomonas aeruginosa PA14 LecB incubated for 22 to 24 hrs by fluorescence polarization assay
Sequence (Q9HYN5 1-115): as the sequence (Q9HYN5 whole entry) above
pIC50: −log10 of the molar value.
Each entry below lists one item and its recorded pIC50 value.
READOUT_KIND: pIC50

{"QUERY_SMILES": "Cc1csc(S(=O)(=O)NC[C@H]2O[C@@H](C)[C@@H](O)[C@@H](O)[C@@H]2O)c1", "READOUT_KIND": "pIC50", "QUANTITATIVE_RESULT": 6.49}
{"QUERY_SMILES": "C[C@@H]1O[C@H](CNS(=O)(=O)c2ccc(C#CCCc3ccccc3)s2)[C@@H](O)[C@H](O)[C@@H]1O", "READOUT_KIND": "pIC50", "QUANTITATIVE_RESULT": 6.40}
{"QUERY_SMILES": "Cc1ccc(C#Cc2ccc(S(=O)(=O)NC[C@H]3O[C@@H](C)[C@@H](O)[C@@H](O)[C@@H]3O)s2)cc1", "READOUT_KIND": "pIC50", "QUANTITATIVE_RESULT": 6.46}
{"QUERY_SMILES": "C[C@@H]1O[C@H](CNS(=O)(=O)c2ccc(Br)s2)[C@@H](O)[C@H](O)[C@@H]1O", "READOUT_KIND": "pIC50", "QUANTITATIVE_RESULT": 6.24}
{"QUERY_SMILES": "Cc1ccccc1C#Cc1ccc(S(=O)(=O)NC[C@H]2O[C@@H](C)[C@@H](O)[C@@H](O)[C@@H]2O)s1", "READOUT_KIND": "pIC50", "QUANTITATIVE_RESULT": 6.57}
{"QUERY_SMILES": "Cc1ccc(S(=O)(=O)NC[C@H]2O[C@@H](C)[C@@H](O)[C@@H](O)[C@@H]2O)s1", "READOUT_KIND": "pIC50", "QUANTITATIVE_RESULT": 6.25}
{"QUERY_SMILES": "C[C@@H]1O[C@H](CNS(=O)(=O)c2ccn(C)n2)[C@@H](O)[C@H](O)[C@@H]1O", "READOUT_KIND": "pIC50", "QUANTITATIVE_RESULT": 6.14}
{"QUERY_SMILES": "C[C@@H]1O[C@H](CNS(=O)(=O)c2ccsc2)[C@@H](O)[C@H](O)[C@@H]1O", "READOUT_KIND": "pIC50", "QUANTITATIVE_RESULT": 6.23}
{"QUERY_SMILES": "C[C@@H]1O[C@H](CNC(=O)c2ccccc2)[C@@H](O)[C@H](O)[C@@H]1O", "READOUT_KIND": "pIC50", "QUANTITATIVE_RESULT": 5.45}

###

tested on: HepG2; assay: Cytotoxicity against human HepG2 cells assessed as reduction in cell viability up to 100 uM after 24 hrs by MTT assay; assay type: cell-based; conditions: hepg2, 24 h

{"QUERY_SMILES": "Cc1cc(S(=O)(=O)NC[C@H]2O[C@@H](C)[C@@H](O)[C@@H](O)[C@@H]2O)c(C)s1", "Activity": "Non-Toxic"}
{"QUERY_SMILES": "Cc1oncc1S(=O)(=O)NC[C@H]1O[C@@H](C)[C@@H](O)[C@@H](O)[C@@H]1O", "Activity": "Non-Toxic"}
{"QUERY_SMILES": "C[C@@H]1O[C@H](CNS(=O)(=O)c2cc(Cl)c(Cl)s2)[C@@H](O)[C@H](O)[C@@H]1O", "Activity": "Non-Toxic"}
{"QUERY_SMILES": "Cc1ccc(S(=O)(=O)NC[C@H]2O[C@@H](C)[C@@H](O)[C@@H](O)[C@@H]2O)s1", "Activity": "Non-Toxic"}

###

biological target: Fucose-binding lectin PA-IIL (Pseudomonas aeruginosa (strain ATCC 15692 / DSM 22644 / CIP 104116 / JCM14847 / LMG 12228 / 1C / PRS 101 / PAO1)); assay: Inhibition of N-(fluorescein-5-yl)-N'-(alpha-L-fucopyranosyl ethylen)thiocarbamide binding to Pseudomonas aeruginosa PAO1 LecB incubated for 22 to 24 hrs by fluorescence polarization assay
Kindly apply the following: MET if IC50 is less than 3000 nM, NOT MET in every other case.

{"QUERY_SMILES": "C[C@@H]1O[C@H](CNS(=O)(=O)c2ccc(/C=C\\c3ccccc3)s2)[C@@H](O)[C@H](O)[C@@H]1O", "CLASS_NAME": "MET"}
{"QUERY_SMILES": "C[C@@H]1O[C@H](CNS(=O)(=O)c2ccsc2)[C@@H](O)[C@H](O)[C@@H]1O", "CLASS_NAME": "MET"}
{"QUERY_SMILES": "C[C@@H]1O[C@H](CNC(=O)c2ccccc2)[C@@H](O)[C@H](O)[C@@H]1O", "CLASS_NAME": "NOT MET"}
{"QUERY_SMILES": "Cc1csc(S(=O)(=O)NC[C@H]2O[C@@H](C)[C@@H](O)[C@@H](O)[C@@H]2O)c1", "CLASS_NAME": "MET"}
{"QUERY_SMILES": "Cc1ccccc1C#Cc1ccc(S(=O)(=O)NC[C@H]2O[C@@H](C)[C@@H](O)[C@@H](O)[C@@H]2O)s1", "CLASS_NAME": "MET"}
{"QUERY_SMILES": "Cc1ccsc1S(=O)(=O)NC[C@H]1O[C@@H](C)[C@@H](O)[C@@H](O)[C@@H]1O", "CLASS_NAME": "MET"}
{"QUERY_SMILES": "C[C@@H]1O[C@H](CNC(=O)c2cc3ccccc3o2)[C@@H](O)[C@H](O)[C@@H]1O", "CLASS_NAME": "NOT MET"}
{"QUERY_SMILES": "C[C@@H]1O[C@H](CNS(=O)(=O)c2ccn(C)n2)[C@@H](O)[C@H](O)[C@@H]1O", "CLASS_NAME": "NOT MET"}

###

target: Fucose-binding lectin PA-IIL (Pseudomonas aeruginosa (strain ATCC 15692 / DSM 22644 / CIP 104116 / JCM14847 / LMG 12228 / 1C / PRS 101 / PAO1), UniProt Q9HYN5); experiment: Inhibition of N-(fluorescein-5-yl)-N'-(alpha-L-fucopyranosyl ethylen)thiocarbamide binding to Pseudomonas aeruginosa PAO1 LecB incubated for 22 to 24 hrs by fluorescence polarization assay
pIC50: −log10 of the molar value.

{"QUERY_SMILES": "Cc1ccc(C#Cc2ccc(S(=O)(=O)NC[C@H]3O[C@@H](C)[C@@H](O)[C@@H](O)[C@@H]3O)s2)cc1", "pIC50": 5.76}
{"QUERY_SMILES": "COc1ccc(C#Cc2ccc(S(=O)(=O)NC[C@H]3O[C@@H](C)[C@@H](O)[C@@H](O)[C@@H]3O)s2)cc1", "pIC50": 5.76}
{"QUERY_SMILES": "CCc1ccc(S(=O)(=O)NC[C@H]2O[C@@H](C)[C@@H](O)[C@@H](O)[C@@H]2O)s1", "pIC50": 5.40}
{"QUERY_SMILES": "C[C@@H]1O[C@H](CNS(=O)(=O)c2ccco2)[C@@H](O)[C@H](O)[C@@H]1O", "pIC50": 5.50}
{"QUERY_SMILES": "Cc1cc(S(=O)(=O)NC[C@H]2O[C@@H](C)[C@@H](O)[C@@H](O)[C@@H]2O)c(C(F)(F)F)o1", "pIC50": 5.46}
